Data provenance: PubChem BioAssay

experiment: yeast growth modulation, basal conditions, primary screen, YJM789 clinical isolate, OD600, 24 h (AID 1089);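 also: growth of clinical yeast isolate S. cerevisiae YJM 789 seeded 1000 cells per well; test concentration not given here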; conditions: S. cerevisiae YJM789 growth, higher = more signal, called active from +8 up or from −8 down
Hi, to clarify the labels: criterion met covers z-score from -0.6 upward, criterion not met covers anything below -0.6.

Some entries whose results are on file:
>>> class_assignment("CC1C2C(CCCO)=CC(C3C(=O)N(C(N)=O)C(=O)C23)N1Cc1cccc(OC(F)(F)F)c1 (centres undefined)")
"criterion not met"
>>> class_assignment("[N-]=[N+]=NCc1ccccc1C[C@@]1(C(N)=O)N=C(c2ccc(OCCCO)cc2)O[C@@H]1c1ccccc1N=[N+]=[N-]")
"criterion met"
>>> class_assignment("CC(=O)NCCCC[C@@H]1NC(=O)[C@H]2C[C@@H](C(=O)O)[C@@H](c3cccc(OCCO)c3)N2C1=O")
"criterion met"
>>> class_assignment("CCCCCN1CC=CC23O[C@@H]4/C=C\\CCCOC(=O)C4[C@H]2C(=O)N(CCCCCO)[C@@H]3C1=O (some centres undefined)")
"criterion met"
>>> class_assignment("Cc1ccc(S[C@]2(C(=O)NCc3ccccc3)CC(=O)N(Cc3ccccc3Cl)[C@@H]2c2ccc(CO)cc2)cc1")
"criterion met"
>>> class_assignment("[N-]=[N+]=NCc1ccccc1[C@H]1OC(c2ccc(OCCCO)cc2)=N[C@@]1(Cc1ccccc1N=[N+]=[N-])C(=O)O")
"criterion met"
>>> class_assignment("CC(C)C(=C=CC[C@H](O)c1cccc(OCCO)c1)C[C@H](O)c1ccccn1")
"criterion met"
>>> class_assignment("CC(C)N1C(=O)[C@@]2(Cc3ccccc31)c1ccccc1C(=O)N(Cc1ccccc1C(F)(F)F)[C@H]2c1ccc(CO)cc1")
"criterion met"

Quick check: does COc1ccc([Si](C)(C)[C@H]2[C@H](CC(=O)N(CCO)Cc3ccccc3)O[C@@]3(C(=O)N(Cc4cccc(N5CCCCC5=O)c4)c4ccccc43)[C@@H]2C)cc1 have z-score greater than or equal to -0.6?
criterion not met

Quick check: does Cc1ccc(S[C@]2(C(=O)NC3CC3)CC(=O)N(C3Cc4ccccc4C3)[C@@H]2c2ccc(CO)cc2I)cc1 have z-score greater than or equal to -0.6?
criterion met

Quick check: does CO[C@H]1O[C@H](CO)[C@@H](OC(=O)Nc2cccc(F)c2)[C@H](OC(=O)c2cc3ccccc3[nH]2)[C@H]1OC(=O)c1cc2ccccc2[nH]1 have z-score greater than or equal to -0.6?
criterion not met

Quick check: does C=C(COC)C(=O)CC[C@H](OC(C)=O)c1ccc(CO)o1 have z-score greater than or equal to -0.6?
criterion not met

Quick check: does C=C(/C=C\CNS(=O)(=O)c1ccc(C)cc1)[C@H](O)[C@H]1CCCN1S(=O)(=O)c1ccccc1[N+](=O)[O-] have z-score greater than or equal to -0.6?
criterion met

Quick check: does CCOC(=O)C[C@H]1[C@H](OC(=O)c2ccc(-c3ccccc3)cc2)[C@@H](NC(=O)C2CCCCC2)c2cc(OCCCO)ccc2N1C(=O)Cc1ccc(OC)cc1 have z-score greater than or equal to -0.6?
criterion met
